target: IGF-1R (Homo sapiens); construct: lines 1-140) and Reaction Biology; test: Dundee kinase panel; type: biochemical; conditions: read-out: residual activity
Sequence (P08069 31-1367): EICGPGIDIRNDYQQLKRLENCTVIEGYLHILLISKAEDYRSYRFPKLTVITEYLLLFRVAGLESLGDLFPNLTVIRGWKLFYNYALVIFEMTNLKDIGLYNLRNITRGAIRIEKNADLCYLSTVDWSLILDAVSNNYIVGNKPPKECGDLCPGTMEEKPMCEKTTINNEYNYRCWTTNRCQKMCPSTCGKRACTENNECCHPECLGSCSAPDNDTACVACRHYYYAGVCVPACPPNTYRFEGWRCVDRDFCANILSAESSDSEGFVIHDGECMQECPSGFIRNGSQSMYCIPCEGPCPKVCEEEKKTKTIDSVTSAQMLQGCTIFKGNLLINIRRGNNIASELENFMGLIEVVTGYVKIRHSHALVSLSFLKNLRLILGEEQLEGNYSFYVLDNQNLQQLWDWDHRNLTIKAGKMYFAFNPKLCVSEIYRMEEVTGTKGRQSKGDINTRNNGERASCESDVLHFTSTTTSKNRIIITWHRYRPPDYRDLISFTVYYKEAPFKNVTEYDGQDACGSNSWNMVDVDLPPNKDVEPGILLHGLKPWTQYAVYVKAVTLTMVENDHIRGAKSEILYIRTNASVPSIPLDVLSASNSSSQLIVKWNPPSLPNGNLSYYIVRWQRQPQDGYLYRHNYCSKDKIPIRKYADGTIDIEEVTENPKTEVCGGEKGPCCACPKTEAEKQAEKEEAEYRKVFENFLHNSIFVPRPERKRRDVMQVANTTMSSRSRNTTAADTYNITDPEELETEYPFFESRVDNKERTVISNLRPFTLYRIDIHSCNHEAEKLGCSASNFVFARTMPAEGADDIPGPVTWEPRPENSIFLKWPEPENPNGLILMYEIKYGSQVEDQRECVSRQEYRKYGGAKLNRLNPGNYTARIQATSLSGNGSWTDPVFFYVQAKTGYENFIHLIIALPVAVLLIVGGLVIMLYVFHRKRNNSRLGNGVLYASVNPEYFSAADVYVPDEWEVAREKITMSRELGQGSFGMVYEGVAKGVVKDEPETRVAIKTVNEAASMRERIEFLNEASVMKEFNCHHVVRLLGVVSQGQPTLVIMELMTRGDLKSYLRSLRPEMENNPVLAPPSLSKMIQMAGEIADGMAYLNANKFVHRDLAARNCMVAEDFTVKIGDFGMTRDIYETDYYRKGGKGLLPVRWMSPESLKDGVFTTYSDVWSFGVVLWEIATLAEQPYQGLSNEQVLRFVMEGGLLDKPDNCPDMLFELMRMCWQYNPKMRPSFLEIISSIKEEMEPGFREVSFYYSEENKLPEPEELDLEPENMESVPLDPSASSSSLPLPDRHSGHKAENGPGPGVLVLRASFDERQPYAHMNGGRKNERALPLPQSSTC

>  <cpd.smiles>
O=C1Cc2c([nH]c3ccc(Br)cc23)-c2ccccc2N1

>  <readout.unit>
%

>  <remaining activity at 1 µM>
74

$$$$
>  <cpd.smiles>
COCCOc1ccc(-c2cn(-c3ccccc3)c3nc[nH]c(=O)c23)cc1

>  <readout.unit>
%

>  <remaining activity at 1 µM>
112

$$$$
>  <cpd.smiles>
O=C1Nc2ccc(I)cc2/C1=C/c1cc(Br)c(O)c(Br)c1

>  <readout.unit>
%

>  <remaining activity at 1 µM>
88

$$$$
>  <cpd.smiles>
Oc1ncnc2c1c(-c1ccccc1)cn2-c1ccccc1

>  <readout.unit>
%

>  <remaining activity at 1 µM>
108

$$$$

====

biological target: BTK (Homo sapiens); construct: lines 1-140) and Reaction Biology; assay: Dundee kinase panel; assay type: biochemical; settings: read-out: residual activity
Items are presented alongside their recorded remaining activity at 1 µM.

>  <cpd.smiles>
COCCOc1ccc(-c2cn(-c3ccccc3)c3nc[nH]c(=O)c23)cc1

>  <readout.unit>
%

>  <remaining activity at 1 µM>
118

$$$$
>  <cpd.smiles>
O=C1Cc2c([nH]c3ccc(Br)cc23)-c2ccccc2N1

>  <readout.unit>
%

>  <remaining activity at 1 µM>
64

$$$$
>  <cpd.smiles>
O=C1Nc2ccc(I)cc2/C1=C/c1cc(Br)c(O)c(Br)c1

>  <readout.unit>
%

>  <remaining activity at 1 µM>
75

$$$$
>  <cpd.smiles>
Oc1ncnc2c1c(-c1ccccc1)cn2-c1ccccc1

>  <readout.unit>
%

>  <remaining activity at 1 µM>
130

$$$$

====

target: HIPK2 (Homo sapiens, UniProt Q9H2X6); construct: lines 1-140) and Reaction Biology; assay: Dundee kinase panel; assay type: biochemical; conditions: read-out: residual activity
Sequence (Q9H2X6 whole entry): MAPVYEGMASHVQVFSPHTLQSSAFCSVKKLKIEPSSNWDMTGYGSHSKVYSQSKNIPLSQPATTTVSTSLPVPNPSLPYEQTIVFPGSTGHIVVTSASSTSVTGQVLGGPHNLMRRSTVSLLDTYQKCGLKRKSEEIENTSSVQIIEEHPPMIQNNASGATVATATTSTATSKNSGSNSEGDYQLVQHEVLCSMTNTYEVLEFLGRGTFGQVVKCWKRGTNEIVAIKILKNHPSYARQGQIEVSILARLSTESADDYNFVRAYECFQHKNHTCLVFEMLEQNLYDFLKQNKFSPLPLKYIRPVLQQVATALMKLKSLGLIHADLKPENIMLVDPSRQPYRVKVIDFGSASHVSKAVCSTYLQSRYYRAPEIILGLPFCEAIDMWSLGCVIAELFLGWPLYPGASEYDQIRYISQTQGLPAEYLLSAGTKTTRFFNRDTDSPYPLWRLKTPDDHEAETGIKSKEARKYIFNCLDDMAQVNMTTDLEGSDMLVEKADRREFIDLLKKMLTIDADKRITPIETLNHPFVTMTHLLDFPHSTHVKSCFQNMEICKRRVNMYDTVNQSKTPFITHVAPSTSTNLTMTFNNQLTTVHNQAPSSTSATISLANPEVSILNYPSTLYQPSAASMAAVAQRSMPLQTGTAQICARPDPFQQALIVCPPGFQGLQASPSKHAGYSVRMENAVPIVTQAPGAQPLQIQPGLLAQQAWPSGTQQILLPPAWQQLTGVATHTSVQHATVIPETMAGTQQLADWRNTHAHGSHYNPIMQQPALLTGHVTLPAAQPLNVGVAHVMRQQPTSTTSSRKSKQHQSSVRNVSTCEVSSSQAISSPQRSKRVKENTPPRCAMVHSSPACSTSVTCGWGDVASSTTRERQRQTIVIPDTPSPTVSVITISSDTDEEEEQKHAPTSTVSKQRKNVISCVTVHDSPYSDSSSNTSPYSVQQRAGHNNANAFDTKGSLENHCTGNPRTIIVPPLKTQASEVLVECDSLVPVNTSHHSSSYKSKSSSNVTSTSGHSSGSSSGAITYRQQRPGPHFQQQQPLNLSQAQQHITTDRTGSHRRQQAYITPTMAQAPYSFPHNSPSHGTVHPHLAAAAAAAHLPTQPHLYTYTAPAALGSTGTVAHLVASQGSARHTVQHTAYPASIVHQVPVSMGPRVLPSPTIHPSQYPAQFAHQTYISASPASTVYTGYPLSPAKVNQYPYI

>  <compound>
COCCOc1ccc(-c2cn(-c3ccccc3)c3nc[nH]c(=O)c23)cc1 [DMX-5804]

>  <remaining activity at 1 µM>
102%

$$$$
>  <compound>
O=C1Cc2c([nH]c3ccc(Br)cc23)-c2ccccc2N1 [Kenpaullone]

>  <remaining activity at 1 µM>
103%

$$$$
>  <compound>
Oc1ncnc2c1c(-c1ccccc1)cn2-c1ccccc1 [F1386-0303]

>  <remaining activity at 1 µM>
87%

$$$$
>  <compound>
O=C1Nc2ccc(I)cc2/C1=C/c1cc(Br)c(O)c(Br)c1 [GW5074]

>  <remaining activity at 1 µM>
134%

$$$$

====

Parameter: remaining activity at 1 µM. Scope: all listed entries.
biological target: PAK6 (Homo sapiens, UniProt Q9NQU5); construct: lines 1-140) and Reaction Biology; experiment: Dundee kinase panel; format: biochemical; settings: read-out: residual activity

>  <cpd.smiles>
COCCOc1ccc(-c2cn(-c3ccccc3)c3nc[nH]c(=O)c23)cc1

>  <remaining activity at 1 µM [%]>
118

$$$$
>  <cpd.smiles>
O=C1Cc2c([nH]c3ccc(Br)cc23)-c2ccccc2N1

>  <remaining activity at 1 µM [%]>
32

$$$$
>  <cpd.smiles>
Oc1ncnc2c1c(-c1ccccc1)cn2-c1ccccc1

>  <remaining activity at 1 µM [%]>
105

$$$$
>  <cpd.smiles>
O=C1Nc2ccc(I)cc2/C1=C/c1cc(Br)c(O)c(Br)c1

>  <remaining activity at 1 µM [%]>
95

$$$$

====

Measured IC50, listed per entry for reference.
biological target: MLK3/MAP3K11 (Homo sapiens); assay: HTRF Transcreener ADP kinase assay; details: MLK3/MAP3K11; HTRF Transcreener ADP assay

>  <cpd.smiles>
Oc1ncnc2c1c(-c1ccccc1)cn2-c1ccccc1

>  <measured.target>
MLK3/MAP3K11 (Homo sapiens)

>  <IC50 (nM)>
813

$$$$
>  <cpd.smiles>
COCCOc1ccc(-c2cn(-c3ccccc3)c3nc[nH]c(=O)c23)cc1

>  <measured.target>
MLK3/MAP3K11 (Homo sapiens)

>  <IC50 (nM)>
102

$$$$

====

target: SGK1 (Homo sapiens, UniProt O00141); construct: lines 1-140) and Reaction Biology; test: Dundee kinase panel; assay type: biochemical; conditions: read-out: residual activity
Sequence (O00141 whole entry): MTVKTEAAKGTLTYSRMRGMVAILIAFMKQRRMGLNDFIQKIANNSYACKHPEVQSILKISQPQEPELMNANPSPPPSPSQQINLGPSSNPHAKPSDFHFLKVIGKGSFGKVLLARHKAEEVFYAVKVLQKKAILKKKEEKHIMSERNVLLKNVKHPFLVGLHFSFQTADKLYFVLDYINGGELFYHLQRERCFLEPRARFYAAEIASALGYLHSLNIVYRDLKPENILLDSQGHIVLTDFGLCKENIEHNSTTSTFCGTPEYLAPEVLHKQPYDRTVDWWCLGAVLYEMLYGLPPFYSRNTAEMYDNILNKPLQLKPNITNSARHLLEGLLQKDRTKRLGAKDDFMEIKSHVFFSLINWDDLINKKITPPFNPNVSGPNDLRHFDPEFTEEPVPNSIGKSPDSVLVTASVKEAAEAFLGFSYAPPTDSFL
Measured remaining activity at 1 µM values are reported for all entries that follow.

>  <compound>
Oc1ncnc2c1c(-c1ccccc1)cn2-c1ccccc1 [F1386-0303]

>  <measured.target>
SGK1 (Homo sapiens, UniProt O00141)

>  <remaining activity at 1 µM>
101%

$$$$
>  <compound>
O=C1Nc2ccc(I)cc2/C1=C/c1cc(Br)c(O)c(Br)c1 [GW5074]

>  <measured.target>
SGK1 (Homo sapiens, UniProt O00141)

>  <remaining activity at 1 µM>
91%

$$$$
>  <compound>
COCCOc1ccc(-c2cn(-c3ccccc3)c3nc[nH]c(=O)c23)cc1 [DMX-5804]

>  <measured.target>
SGK1 (Homo sapiens, UniProt O00141)

>  <remaining activity at 1 µM>
104%

$$$$
>  <compound>
O=C1Cc2c([nH]c3ccc(Br)cc23)-c2ccccc2N1 [Kenpaullone]

>  <measured.target>
SGK1 (Homo sapiens, UniProt O00141)

>  <remaining activity at 1 µM>
101%

$$$$

====

Reported remaining activity at 1 µM values are given for each entry in this list.
molecular target: HER4 (Homo sapiens); construct: lines 1-140) and Reaction Biology; assay: Dundee kinase panel; format: biochemical; conditions: read-out: residual activity
Sequence (Q15303 26-1308): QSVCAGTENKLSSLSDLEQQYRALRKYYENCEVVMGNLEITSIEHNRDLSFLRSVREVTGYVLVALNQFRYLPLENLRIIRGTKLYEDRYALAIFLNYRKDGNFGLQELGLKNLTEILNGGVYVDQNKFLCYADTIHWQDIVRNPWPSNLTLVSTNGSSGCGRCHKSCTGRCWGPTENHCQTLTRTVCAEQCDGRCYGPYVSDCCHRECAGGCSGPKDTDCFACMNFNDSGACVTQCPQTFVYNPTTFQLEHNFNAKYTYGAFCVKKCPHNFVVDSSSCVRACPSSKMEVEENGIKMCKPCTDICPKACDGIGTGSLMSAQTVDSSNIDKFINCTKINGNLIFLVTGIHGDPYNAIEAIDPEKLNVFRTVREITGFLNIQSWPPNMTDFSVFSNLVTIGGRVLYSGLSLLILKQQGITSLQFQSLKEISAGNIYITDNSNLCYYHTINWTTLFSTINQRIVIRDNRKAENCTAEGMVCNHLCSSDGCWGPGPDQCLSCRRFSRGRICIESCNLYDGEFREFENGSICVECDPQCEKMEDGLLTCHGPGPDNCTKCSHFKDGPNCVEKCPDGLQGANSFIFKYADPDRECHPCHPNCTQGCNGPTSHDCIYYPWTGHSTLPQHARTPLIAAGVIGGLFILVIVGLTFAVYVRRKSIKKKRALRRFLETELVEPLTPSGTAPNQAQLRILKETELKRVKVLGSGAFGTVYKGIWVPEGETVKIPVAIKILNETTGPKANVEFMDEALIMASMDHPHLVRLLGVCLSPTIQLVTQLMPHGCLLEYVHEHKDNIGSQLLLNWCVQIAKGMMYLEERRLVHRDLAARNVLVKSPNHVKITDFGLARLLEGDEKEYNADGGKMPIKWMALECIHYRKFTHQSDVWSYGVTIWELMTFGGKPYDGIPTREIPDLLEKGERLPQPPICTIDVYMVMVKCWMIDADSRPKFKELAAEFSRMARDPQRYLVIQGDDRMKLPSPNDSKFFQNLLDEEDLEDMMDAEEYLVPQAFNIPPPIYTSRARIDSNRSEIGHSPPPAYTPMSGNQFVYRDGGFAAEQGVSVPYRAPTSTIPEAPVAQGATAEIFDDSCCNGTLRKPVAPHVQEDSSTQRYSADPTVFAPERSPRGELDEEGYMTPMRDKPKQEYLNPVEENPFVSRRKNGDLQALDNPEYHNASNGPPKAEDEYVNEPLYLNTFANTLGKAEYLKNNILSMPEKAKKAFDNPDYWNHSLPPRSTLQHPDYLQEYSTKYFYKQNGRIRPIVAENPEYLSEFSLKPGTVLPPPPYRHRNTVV
measured.property: remaining activity at 1 µM (%)

>  <cpd.smiles>
O=C1Cc2c([nH]c3ccc(Br)cc23)-c2ccccc2N1

>  <readout.unit>
%

>  <measurement>
85

$$$$
>  <cpd.smiles>
COCCOc1ccc(-c2cn(-c3ccccc3)c3nc[nH]c(=O)c23)cc1

>  <readout.unit>
%

>  <measurement>
106

$$$$
>  <cpd.smiles>
O=C1Nc2ccc(I)cc2/C1=C/c1cc(Br)c(O)c(Br)c1

>  <readout.unit>
%

>  <measurement>
68

$$$$
>  <cpd.smiles>
Oc1ncnc2c1c(-c1ccccc1)cn2-c1ccccc1

>  <readout.unit>
%

>  <measurement>
82

$$$$

====

Measured pIC50, listed per entry.
target: GCK/MAP4K2 (Homo sapiens, UniProt Q12851); assay: HTRF Transcreener ADP kinase assay; conditions: GCK/MAP4K2; HTRF Transcreener ADP assay
Sequence (Q12851 whole entry): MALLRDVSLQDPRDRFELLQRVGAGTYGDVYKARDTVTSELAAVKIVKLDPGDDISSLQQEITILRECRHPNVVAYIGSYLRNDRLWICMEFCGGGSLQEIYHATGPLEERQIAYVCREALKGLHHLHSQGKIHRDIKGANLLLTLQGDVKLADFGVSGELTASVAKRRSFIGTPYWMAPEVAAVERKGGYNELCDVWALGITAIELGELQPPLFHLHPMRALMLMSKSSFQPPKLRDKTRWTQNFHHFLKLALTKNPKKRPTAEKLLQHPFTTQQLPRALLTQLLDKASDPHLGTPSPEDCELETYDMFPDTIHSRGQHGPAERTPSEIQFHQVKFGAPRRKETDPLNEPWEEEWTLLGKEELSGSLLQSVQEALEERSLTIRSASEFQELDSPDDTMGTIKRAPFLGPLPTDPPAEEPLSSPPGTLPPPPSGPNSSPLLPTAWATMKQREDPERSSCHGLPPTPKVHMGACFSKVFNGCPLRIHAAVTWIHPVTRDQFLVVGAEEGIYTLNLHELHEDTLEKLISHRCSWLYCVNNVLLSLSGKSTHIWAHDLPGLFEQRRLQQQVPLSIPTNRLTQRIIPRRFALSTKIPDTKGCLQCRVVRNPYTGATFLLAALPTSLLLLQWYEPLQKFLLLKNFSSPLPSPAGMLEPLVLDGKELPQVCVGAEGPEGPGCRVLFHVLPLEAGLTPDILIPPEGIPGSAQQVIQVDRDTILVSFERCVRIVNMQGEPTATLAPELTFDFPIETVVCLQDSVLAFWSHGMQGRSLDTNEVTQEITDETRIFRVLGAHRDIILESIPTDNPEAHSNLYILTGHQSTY
pIC50: −log10 of the molar value.

>  <cpd.smiles>
Oc1ncnc2c1c(-c1ccccc1)cn2-c1ccccc1

>  <pIC50>
5.91

$$$$
>  <cpd.smiles>
COCCOc1ccc(-c2cn(-c3ccccc3)c3nc[nH]c(=O)c23)cc1

>  <pIC50>
6.50

$$$$

====

biological target: PKD1 (Homo sapiens); construct: lines 1-140) and Reaction Biology; assay: Dundee kinase panel; assay type: biochemical; details: read-out: residual activity
measured.property: remaining activity at 1 µM (%)

>  <compound>
COCCOc1ccc(-c2cn(-c3ccccc3)c3nc[nH]c(=O)c23)cc1 [DMX-5804]

>  <measured.target>
PKD1 (Homo sapiens)

>  <readout.unit>
%

>  <measurement>
102

$$$$
>  <compound>
Oc1ncnc2c1c(-c1ccccc1)cn2-c1ccccc1 [F1386-0303]

>  <measured.target>
PKD1 (Homo sapiens)

>  <readout.unit>
%

>  <measurement>
103

$$$$
>  <compound>
O=C1Cc2c([nH]c3ccc(Br)cc23)-c2ccccc2N1 [Kenpaullone]

>  <measured.target>
PKD1 (Homo sapiens)

>  <readout.unit>
%

>  <measurement>
100

$$$$
>  <compound>
O=C1Nc2ccc(I)cc2/C1=C/c1cc(Br)c(O)c(Br)c1 [GW5074]

>  <measured.target>
PKD1 (Homo sapiens)

>  <readout.unit>
%

>  <measurement>
66

$$$$

====

Item-by-item account of remaining activity at 1 µM
Molecular target: ERK8 (Homo sapiens, UniProt Q8TD08)
Construct: lines 1-140) and Reaction Biology
Sequence (Q8TD08 1-544): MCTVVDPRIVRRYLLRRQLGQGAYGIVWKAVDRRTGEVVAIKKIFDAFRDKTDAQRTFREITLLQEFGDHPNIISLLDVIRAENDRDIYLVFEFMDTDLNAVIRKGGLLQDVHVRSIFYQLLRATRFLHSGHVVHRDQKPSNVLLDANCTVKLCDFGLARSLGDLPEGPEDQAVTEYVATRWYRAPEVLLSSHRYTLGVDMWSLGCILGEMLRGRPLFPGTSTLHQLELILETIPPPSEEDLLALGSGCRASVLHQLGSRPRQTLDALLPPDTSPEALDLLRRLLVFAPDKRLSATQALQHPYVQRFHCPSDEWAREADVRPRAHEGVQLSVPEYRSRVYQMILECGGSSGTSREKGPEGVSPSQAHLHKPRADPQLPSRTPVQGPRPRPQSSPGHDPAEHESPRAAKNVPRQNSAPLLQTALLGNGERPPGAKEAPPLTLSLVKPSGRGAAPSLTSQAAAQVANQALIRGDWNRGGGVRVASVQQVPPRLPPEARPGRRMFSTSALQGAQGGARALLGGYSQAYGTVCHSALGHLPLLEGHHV
Test: Dundee kinase panel
Assay type: biochemical
Conditions: read-out: residual activity
measured.property: remaining activity at 1 µM (%)

>  <cpd.smiles>
O=C1Cc2c([nH]c3ccc(Br)cc23)-c2ccccc2N1

>  <measurement>
46

$$$$
>  <cpd.smiles>
Oc1ncnc2c1c(-c1ccccc1)cn2-c1ccccc1

>  <measurement>
109

$$$$
>  <cpd.smiles>
O=C1Nc2ccc(I)cc2/C1=C/c1cc(Br)c(O)c(Br)c1

>  <measurement>
35

$$$$
>  <cpd.smiles>
COCCOc1ccc(-c2cn(-c3ccccc3)c3nc[nH]c(=O)c23)cc1

>  <measurement>
110

$$$$
